target: Ras farnesyl transferase (Homo sapiens, UniProt P49354+P49356); construct: made in house; assay: Ras farnesyl transferase enzyme inhibition, K-Ras substrate (H-Ras fused with polybasic lysine domain of K-Ras); format: biochemical; settings: K-Ras substrate (fused protein of H-Ras with polybasic lysine domain of K-Ras); recombinant farnesyl transferase
pIC50: −log10 of the molar value.
reported-property: pIC50

Input line: Form field: reported pIC50 of `O=C(c1cn(Cc2cncn2CCCOCc2ccccc2)cc1-c1cccc2ccccc12)N1CCOCC1`
Output line: > 8.00

Input line: Also, `Nc1cn(Cc2cncn2Cc2ccc(Cl)cc2)cc1-c1cccc2ccccc12` please.
Output line: < 7.52

Input line: Also, `CN1CCN(C(=O)c2cn(Cc3c([N+](=O)[O-])ncn3Cc3ccc4c(c3)OCO4)cc2-c2cccc3ccccc23)CC1` please.
Output line: < 7.52

Input line: Also, `CN1CCN(C(=O)c2cn(Cc3cncn3CCc3cccs3)cc2-c2cccc3ccccc23)CC1` please.
Output line: > 7.00

Input line: Also, `O=C(c1cn(Cc2cncn2CCCOc2ccccc2)cc1-c1cccc2ccccc12)N1CCOCC1` please.
Output line: > 8.00

Input line: Also, `Cc1ccc(CCn2cncc2Cn2cc(-c3cccc4ccccc34)c([N+](=O)[O-])c2)cc1` please.
Output line: < 7.52

Input line: Also, `Cc1ncc(Cn2cc(C(=O)N3CCN(C)CC3)c(-c3cccc4ccccc34)c2)n1CCc1ccccc1` please.
Output line: > 8.23

Input line: Also, `COCCN(C)C(=O)c1cn(Cc2c(C)ncn2CCCOCc2ccccc2Cl)cc1-c1cccc2ccccc12` please.
Output line: > 7.82

Input line: Also, `COc1ccc(CCn2cncc2Cn2cc(-c3cccc4ccccc34)c([N+](=O)[O-])c2)cc1` please.
Output line: > 7.82

----------
target: Ras farnesyl transferase (Rattus norvegicus, UniProt Q02293+Q04631); construct: endogenous in cells; host or cells: Rat2 fibroblasts transformed with C-Harvey-Ras or with the H-Ras/K-Ras polybasic-domain fusion; test: In vivo (intracellular) Ras farnesylation inhibition in Rat2 cell line expressing C-Harvey-Ras; type: cell-based; details: Rat2 cells expressing C-Harvey-Ras; concentration inhibiting 50% of farnesyl binding; read-out: H-Ras CIC50
reported-property: IC50

Sample answers from the record:
- input-smiles: "CCOCCCn1c(Cn2cc(C(=O)N3CCN(C)CC3)c(-c3cccc4ccccc34)c2)cnc1C"
  reported-property: "IC50"
  result: "< 25 nM"
- input-smiles: "Cc1ncn(CCCOCc2ccccc2Cl)c1Cn1cc(C(=O)N2CCN(C)CC2)c(-c2cccc3ccccc23)c1"
  reported-property: "IC50"
  result: "< 6.25 nM"
- input-smiles: "Cn1cncc1Cn1cc(-c2cccc3ccccc23)c([N+](=O)[O-])c1"
  reported-property: "IC50"
  result: "> 50 nM"
- input-smiles: "COc1cccc(CCn2cncc2Cn2cc(-c3cccc4ccccc34)c([N+](=O)[O-])c2)c1"
  reported-property: "IC50"
  result: "< 25 nM"
- input-smiles: "O=[N+]([O-])c1cn(Cc2cncn2CCc2cccc(Br)c2)cc1-c1cccc2ccccc12"
  reported-property: "IC50"
  result: "> 50 nM"

Input line: Form field: reported IC50 of `O=[N+]([O-])c1cn(Cc2cncn2Cc2ccc(Cl)cc2)cc1-c1cccc2ccccc12`
Output line: > 25 nM

Input line: Also, `O=[N+]([O-])c1cn(Cc2cncn2CCc2ccc(F)cc2)cc1-c1cccc2ccccc12` please.
Output line: > 50 nM

Input line: Also, `CSc1ncc(Cn2cc(C(=O)N3CCN(C)CC3)c(-c3cccc4ccccc34)c2)n1Cc1ccc2c(c1)OCO2` please.
Output line: > 25 nM

----------
target: Ras farnesyl transferase (Homo sapiens, UniProt P49354+P49356); construct: made in house; test: Ras farnesyl transferase enzyme inhibition, H-Ras substrate; format: biochemical; conditions: H-Ras substrate protein; recombinant farnesyl transferase; 30 minutes at 37° C.
reported-property: IC50

Sample answers from the record:
- input-smiles: "O=[N+]([O-])c1cn(Cc2cncn2CCc2ccc(Cl)cc2)cc1-c1cccc2ccccc12"
  IC50: "< 9 nM"
- input-smiles: "COCCN(C)C(=O)c1cn(Cc2cncn2CCCOCc2ccccc2)cc1-c1cccc2ccccc12"
  IC50: "< 10 nM"
- input-smiles: "COCCN(C)C(=O)c1cn(Cc2cncn2C2CCN(Cc3ccccc3)CC2)cc1-c1cccc2ccccc12"
  IC50: "< 10 nM"
- input-smiles: "Cc1ncn(Cc2ccc3ccccc3c2)c1Cn1cc(C(=O)N2CCN(C)CC2)c(-c2cccc3ccccc23)c1"
  IC50: "< 10 nM"
- input-smiles: "O=C(c1cn(Cc2cncn2CCCOCc2ccccc2)cc1-c1cccc2ccccc12)N1CCOCC1"
  IC50: "< 10 nM"
- input-smiles: "Nc1cn(Cc2cncn2Cc2ccc(Cl)cc2)cc1-c1cccc2ccccc12"
  IC50: "> 30 nM"
- input-smiles: "CN1CCN(C(=O)c2cn(Cc3c(N)ncn3Cc3ccc4c(c3)OCO4)cc2-c2cccc3ccccc23)CC1"
  IC50: "< 2.7 nM"

# ---- query compound ----
Input line: Form field: reported IC50 of `Cc1ncn(Cc2ccc3c(c2)OCO3)c1Cn1cc(C(=O)N2CCN(C)CC2)c(-c2cc(Br)cc3ccccc23)c1`
Output line: < 10 nM

----------
In this section, each of the compounds is paired with its reported IC50.
target: Ras farnesyl transferase (Homo sapiens, UniProt P49354+P49356); construct: made in house; assay: Ras farnesyl transferase enzyme inhibition, H-Ras substrate; assay type: biochemical; settings: H-Ras substrate protein; recombinant farnesyl transferase; 30 minutes at 37° C.

Input line: Form field: reported IC50 of `Cc1ncn(CCCOCc2ccccc2)c1Cn1cc(C(=O)N2CCN(C)CC2)c(-c2cccc3ccccc23)c1`
Output line: < 0.00245 µM

Input line: Also, `CN1CCN(C(=O)c2cn(Cc3c([N+](=O)[O-])ncn3Cc3ccc4c(c3)OCO4)cc2-c2cccc3ccccc23)CC1` please.
Output line: > 0.03 µM

Input line: Also, `CCOCCCn1cnc(C)c1Cn1cc(C(=O)N2CCN(C)CC2)c(-c2cccc3ccccc23)c1` please.
Output line: < 0.0022 µM

Input line: Also, `CN1CCN(C(=O)c2cn(Cc3cncn3CCc3cccs3)cc2-c2cccc3ccccc23)CC1` please.
Output line: < 0.01 µM

Input line: Also, `CCSCCCn1cncc1Cn1cc(C(=O)N(C)CCOC)c(-c2cccc3ccccc23)c1` please.
Output line: < 0.01 µM

Input line: Also, `COc1ccc(CCn2cncc2Cn2cc(-c3cccc4ccccc34)c([N+](=O)[O-])c2)cc1` please.
Output line: < 0.011 µM

Input line: Also, `COCCN(C)C(=O)c1cn(Cc2cncn2CCCSc2ccccc2)cc1-c1cccc2ccccc12` please.
Output line: < 0.01 µM

Input line: Also, `O=[N+]([O-])c1cn(Cc2cncn2Cc2ccc(Br)cc2)cc1-c1cccc2ccccc12` please.
Output line: < 0.023 µM

----------
biological target: Ras farnesyl transferase (Rattus norvegicus, UniProt Q02293+Q04631); construct: endogenous in cells; host or cells: Rat2 fibroblasts transformed with C-Harvey-Ras or with the H-Ras/K-Ras polybasic-domain fusion; assay: In vivo (intracellular) Ras farnesylation inhibition in Rat2 cell line transformed with H-Ras fused with polybasic lysine domain of K-Ras; type: cell-based; details: Rat2 cells transformed with H-Ras/K-Ras polybasic domain fused protein; concentration inhibiting 50% of farnesyl binding; read-out: K-Ras CIC50
In this section, each of the molecules is paired with its reported IC50.

- molecule: "COCCN(C)C(=O)c1cn(Cc2cncn2C2CCN(Cc3ccccc3)CC2)cc1-c1cccc2ccccc12 [Example 13]"
  reported-property: "IC50"
  result: "10 to 50 µM"
- molecule: "CSc1c(C(=O)N2CCN(C)CC2)c(-c2cccc3ccccc23)cn1Cc1cncn1Cc1ccc2c(c1)OCO2 [Example 19]"
  reported-property: "IC50"
  result: "> 10 µM"
- molecule: "CCSCCCn1cncc1Cn1cc(C(=O)N(C)CCOC)c(-c2cccc3ccccc23)c1 [Example 8]"
  reported-property: "IC50"
  result: "10 to 50 µM"
- molecule: "Cc1ncn(Cc2ccc3ccccc3c2)c1Cn1cc(C(=O)N2CCN(C)CC2)c(-c2cc(Cl)cc3ccccc23)c1 [Example 54]"
  reported-property: "IC50"
  result: "> 10 µM"
- molecule: "Cc1ncn(Cc2ccc3ccccc3c2)c1Cn1cc(C(=O)N2CCN(C)CC2)c(-c2cccc3ccccc23)c1 [Example 55]"
  reported-property: "IC50"
  result: "> 10 µM"

Input line: Form field: reported IC50 of COc1ccccc1CCn1c(Cn2cc(C(=O)N3CCN(C)CC3)c(-c3cccc4ccccc34)c2)cnc1C [Example 26]
Output line: > 10 µM

Input line: Also, CCSc1c(C(=O)N2CCN(C)CC2)c(-c2cccc3ccccc23)cn1Cc1cncn1Cc1ccc2c(c1)OCO2 [Example 25] please.
Output line: < 5 µM

Input line: Also, CCOCCCn1c(Cn2cc(C(=O)N3CCN(C)CC3)c(-c3cccc4ccccc34)c2)cnc1C [Example 27] please.
Output line: > 10 µM

Where do these numbers come from? They come from patent US6511978B1.
